Target: human serotonin transporter/SLC6A4 (SERT) (Homo sapiens)
Construct: expressed in transfected cells; host or cells: HEK293
Sequence (P31645 whole entry): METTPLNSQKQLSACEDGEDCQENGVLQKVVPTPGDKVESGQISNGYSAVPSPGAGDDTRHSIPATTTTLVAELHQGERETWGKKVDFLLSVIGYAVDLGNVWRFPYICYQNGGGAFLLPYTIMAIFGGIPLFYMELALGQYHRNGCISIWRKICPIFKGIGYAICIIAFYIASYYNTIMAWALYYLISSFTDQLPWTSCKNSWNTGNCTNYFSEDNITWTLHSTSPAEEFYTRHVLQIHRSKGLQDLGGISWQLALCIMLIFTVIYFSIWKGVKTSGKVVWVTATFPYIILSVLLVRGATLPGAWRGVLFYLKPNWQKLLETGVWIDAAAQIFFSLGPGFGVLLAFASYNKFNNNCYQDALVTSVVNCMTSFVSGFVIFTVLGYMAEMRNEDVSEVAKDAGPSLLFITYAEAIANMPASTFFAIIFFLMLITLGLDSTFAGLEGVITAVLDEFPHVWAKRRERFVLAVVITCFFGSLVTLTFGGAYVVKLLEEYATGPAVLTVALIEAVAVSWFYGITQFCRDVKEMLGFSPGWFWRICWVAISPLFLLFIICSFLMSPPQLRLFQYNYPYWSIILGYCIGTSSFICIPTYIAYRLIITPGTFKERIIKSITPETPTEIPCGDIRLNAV
Test: Cellular uptake experiments: [3H]-serotonin reuptake inhibition in transporter-expressing HEK293 cells
Assay type: cell-based
Conditions: at 50 µM / tested concentration range
recordedMetric: activity on SERT (reuptake inhibition), in words

| compound | experimentalSystem | result |
| --- | --- | --- |
| [O-][S+](Cc1cccs1)C(c1ccccc1)c1ccccc1Br (stereo not shown) [Compound 7g] | human serotonin transporter/SLC6A4 (SERT) (Homo sapiens) | no effect |
| [O-][S+](Cc1cccs1)C(c1ccccc1)c1ccccc1Br (stereo not shown) [Compound 5g] | human serotonin transporter/SLC6A4 (SERT) (Homo sapiens) | no effect |

---

Molecular target: human serotonin transporter/SLC6A4 (SERT) (Homo sapiens)
Construct: expressed in transfected cells; host or cells: HEK293
Experiment: Cellular uptake experiments: [3H]-serotonin reuptake inhibition in transporter-expressing HEK293 cells
Assay type: cell-based
Conditions: Reuptake Inhibition (IC50 ± SE, µM) SERT, cells stably expressing SERT; [3H]-serotonin 1 µM; screening cut-off 50 µM
recordedMetric: IC50

| molecule | recordedMetric | result |
| --- | --- | --- |
| [O-][S+](Cc1cccs1)C(c1ccccc1)c1ccccc1C(F)(F)F (stereo not drawn) [Compound 5o] | IC50 | > 50 µM |
| Cc1cccc([C@H](c2ccccc2)[S@@+]([O-])Cc2cccs2)c1 [Compound 7m] | IC50 | > 50 µM |
| [O-][S+](Cc1cccs1)C(c1ccccc1)c1ccc(C(F)(F)F)cc1 (stereo not drawn) [Compound 5q] | IC50 | > 50 µM |
| COc1ccc([C@@H](c2ccccc2)[S@+]([O-])Cc2cccs2)cc1 [Compound 6t] | IC50 | 11 µM |
| Cc1cccc([C@@H](c2ccccc2)[S@@+]([O-])Cc2cccs2)c1 [Compound 5m] | IC50 | > 50 µM |
| COc1cccc(C(c2ccccc2)[S+]([O-])Cc2cccs2)c1 (stereo not drawn) [Compound 6s] | IC50 | 35 µM |
| [O-][S+](Cc1cccs1)C(c1ccc(F)cc1)c1ccc(Cl)cc1 (stereo not drawn) [Compound 5u] | IC50 | > 50 µM |
| COc1ccc([C@H](c2ccccc2)[S@@+]([O-])Cc2cccs2)cc1 [Compound 5t] | IC50 | > 50 µM |
| [O-][S+](Cc1cccs1)C(c1ccccc1)c1ccccc1Br (stereo not drawn) [Compound 5g] | IC50 | > 50 µM |

---

Target: noradrenaline transporter/SLC6A2 (NET) (Homo sapiens)
Construct: expressed in transfected cells; host or cells: HEK293
Sequence (P23975 whole entry): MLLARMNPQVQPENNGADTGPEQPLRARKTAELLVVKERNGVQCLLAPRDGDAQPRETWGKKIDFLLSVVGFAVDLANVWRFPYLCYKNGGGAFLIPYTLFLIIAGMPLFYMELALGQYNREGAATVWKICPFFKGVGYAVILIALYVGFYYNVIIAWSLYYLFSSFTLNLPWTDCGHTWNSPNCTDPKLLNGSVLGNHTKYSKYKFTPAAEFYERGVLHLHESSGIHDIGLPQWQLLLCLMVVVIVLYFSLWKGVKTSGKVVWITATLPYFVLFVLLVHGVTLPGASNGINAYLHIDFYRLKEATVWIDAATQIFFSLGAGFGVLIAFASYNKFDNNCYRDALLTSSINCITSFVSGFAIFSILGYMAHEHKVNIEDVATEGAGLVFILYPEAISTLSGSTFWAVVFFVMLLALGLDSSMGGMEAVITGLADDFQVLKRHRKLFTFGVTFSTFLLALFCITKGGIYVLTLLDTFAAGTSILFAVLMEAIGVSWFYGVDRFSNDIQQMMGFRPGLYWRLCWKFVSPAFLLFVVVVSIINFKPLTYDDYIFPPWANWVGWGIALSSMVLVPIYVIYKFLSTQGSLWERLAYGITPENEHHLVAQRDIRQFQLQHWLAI
Test: Cellular uptake experiments: [3H]-noradrenaline reuptake inhibition in transporter-expressing HEK293 cells
Type: cell-based
IC50 values for the compounds below.
recordedMetric: IC50

| compound | result |
| --- | --- |
| [O-][S@+](Cc1cccs1)[C@H](c1ccccc1)c1cccc(Br)c1 [Compound 8h] | > 50 µM |
| [O-][S@@+](Cc1cccs1)[C@@H](c1ccccc1)c1cccc(Br)c1 [Compound 7h] | 16.4 µM |
| [O-][S@@+](Cc1cccs1)[C@H](c1ccccc1)c1cccc(Br)c1 [Compound 5h] | > 50 µM |
| [O-][S@+](Cc1cccs1)[C@@H](c1ccccc1)c1cccc(Br)c1 [Compound 6h] | > 50 µM |
